These data points were gathered from patent US8022091B2.

We begin with a simple list: items and their reported inhibition at 10 µM.
tgt: human Edg-1 (S1P1) (Homo sapiens, UniProt P21453)
Construct: expressed in transfected cells; host or cells: HEK-293
Sequence (P21453 whole entry): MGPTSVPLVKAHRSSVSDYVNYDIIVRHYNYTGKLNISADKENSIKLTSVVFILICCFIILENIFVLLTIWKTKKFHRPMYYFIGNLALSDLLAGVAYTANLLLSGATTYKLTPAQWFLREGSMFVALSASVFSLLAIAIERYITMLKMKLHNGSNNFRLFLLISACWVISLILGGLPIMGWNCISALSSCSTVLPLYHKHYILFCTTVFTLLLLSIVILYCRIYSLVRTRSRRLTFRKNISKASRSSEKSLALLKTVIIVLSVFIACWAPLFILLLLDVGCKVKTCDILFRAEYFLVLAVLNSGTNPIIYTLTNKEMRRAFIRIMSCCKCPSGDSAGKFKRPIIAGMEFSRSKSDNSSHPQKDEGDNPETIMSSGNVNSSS
test method notes: S1P1 binding assay: inhibition of [33P]-S1P binding to membrane fraction of HEK-293 cells transferred with the human Edg-1 (S1P1) gene
measurement parameters: test compound 10 μM; inhibition of [33P]-S1P binding, membrane fraction
Description: The membrane fraction was obtained by treating the cells with a solubilizing buffer (1 mM Tris/HCl, pH 7.2) for 10 minutes on ice, centrifuging at 1000×g for 5 minutes to remove insoluble fractions, and then centrifuging at 40000×g for 30 minutes at 4° C. […] The same procedure was carried out in the absence of the test compound, and the amount (B) of [^33P]-S1P bound was calculated. […]
State the answer as a number, implicitly in %.

- CCn1c(Oc2ccc3cc[nH]c3c2)nnc1[C@@H](C)NS(=O)(=O)c1ccc(Br)c(F)c1: 95.5

# value of inhibition at 10 µM, human Edg-1 (S1P1) (Homo sapiens, UniProt P21453), item `CCn1c(Oc2cccc(N3CCN(C)CC3)c2)nnc1[C@@H](C)NS(=O)(=O)c1cc(F)ccc1C` = 74.4

# value of inhibition at 10 µM, human Edg-1 (S1P1) (Homo sapiens, UniProt P21453), item `CCn1c(Oc2ccc3cc[nH]c3c2)nnc1[C@@H](C)NS(=O)(=O)c1cc(F)c(Cl)cc1F` = 91.5

# value of inhibition at 10 µM, human Edg-1 (S1P1) (Homo sapiens, UniProt P21453), item `CCn1c(Oc2cccc(N3CCN(C)CC3)c2)nnc1[C@@H](C)NS(=O)(=O)c1cc(F)c(Cl)cc1F` = 109

###

tgt: human Edg-1 (S1P1) (Homo sapiens)
test method notes: S1P1 binding assay: inhibition of [33P]-S1P binding to membrane fraction of HEK-293 cells transferred with the human Edg-1 (S1P1) gene
measurement parameters: [33P]-S1P 0.1 nM, human Edg-1 (S1P1) HEK-293 membrane fraction, 1 h at 30° C.; read-out: IC50 (concentration at which binding in the absence of the test compound was inhibited by 50%)
We begin with a simple list: items and their reported IC50.
State the answer as a number, implicitly in µM.

IC50 reading for `CCn1c(Oc2cccc(N3CCN(C)CC3)c2)nnc1[C@@H](C)NS(=O)(=O)c1ccc(Cl)c(Cl)c1` : 0.0042

IC50 reading for `CCn1c(Oc2cccc(N3CCN(C)CC3)c2)nnc1[C@@H](C)NS(=O)(=O)c1ccc2c(C#N)cccc2c1` : 0.0051

IC50 reading for `CCn1c(Oc2ccc(C3CCCCC3)cc2)nnc1[C@@H](C)NS(=O)(=O)c1ccc(Cl)c(Cl)c1` : 0.0325

###

We begin with a simple list: items and their reported inhibition at 10 µM.
tgt: human Edg-1 (S1P1) (Homo sapiens)
Construct: expressed in transfected cells; host or cells: HEK-293
test method notes: S1P1 binding assay: inhibition of [33P]-S1P binding to membrane fraction of HEK-293 cells transferred with the human Edg-1 (S1P1) gene
measurement parameters: test compound at 10 μM; inhibition of [33P]-S1P binding to the membrane fraction of HEK-293 cells expressing human Edg-1 (S1P1)
State the answer as a number, implicitly in %.

inhibition at 10 µM reading for `CCn1c(Oc2ccc(F)cc2)nnc1[C@@H](C)NS(=O)(=O)c1cc(C)sc1C` : 82.1

inhibition at 10 µM reading for `CCn1c(Oc2ccc(F)cc2)nnc1[C@@H](C)NS(=O)(=O)c1ccc(OC)cc1OC` : 78.8

inhibition at 10 µM reading for `CCN(CC)c1cccc(Oc2nnc([C@@H](C)NS(=O)(=O)c3ccc(Cl)c(Cl)c3)n2CC)c1` : 96.5

inhibition at 10 µM reading for `CCc1ccc(S(=O)(=O)N[C@H](C)c2nnc(Oc3ccc(F)cc3)n2CC)cc1` : 92

inhibition at 10 µM reading for `CCn1c(Oc2ccc(F)cc2)nnc1[C@@H](C)NS(=O)(=O)c1cc(Br)cc(C(F)(F)F)c1` : 61.7

inhibition at 10 µM reading for `CCn1c(Oc2ccc(F)cc2)nnc1[C@@H](C)NS(=O)(=O)c1ccc(C(F)(F)F)cc1Cl` : 77.4

inhibition at 10 µM reading for `CCn1c(Oc2ccc(F)cc2)nnc1[C@@H](C)NS(=O)(=O)c1ccc(F)c(F)c1F` : 64.8

inhibition at 10 µM reading for `CCn1c(Oc2ccc(F)cc2)nnc1[C@@H](C)NS(=O)(=O)c1ccc(F)cc1C` : 71.6

###

tgt: human Edg-1 (S1P1) (Homo sapiens, UniProt P21453)
Construct: expressed in transfected cells; host or cells: HEK-293
test method notes: S1P1 binding assay: inhibition of [33P]-S1P binding to membrane fraction of HEK-293 cells transferred with the human Edg-1 (S1P1) gene
measurement parameters: test compound 10 μM; inhibition of [33P]-S1P binding, membrane fraction
We begin with a simple list: items and their reported inhibition at 10 µM.
State the answer as a number, implicitly in %.

Example results:
• CCn1c(Oc2cccc(N3CCN(C)CC3)c2)nnc1[C@@H](C)NS(=O)(=O)c1ccc(F)cc1Br = 93.1
• CCn1c(Oc2ccc3cc[nH]c3c2)nnc1[C@@H](C)NS(=O)(=O)c1cc(C)ccc1F = 76.8
• CCn1c(Oc2cccc(N3CCN(C)CC3)c2)nnc1[C@@H](C)NS(=O)(=O)c1ccc(F)c(F)c1F = 92.4
• CCn1c(Oc2ccc3cc[nH]c3c2)nnc1[C@@H](C)NS(=O)(=O)c1ccc(Br)cc1Cl = 81.1
• CCn1c(Oc2ccc(F)cc2)nnc1C(NS(=O)(=O)c1ccc(Cl)c(Cl)c1)C(F)(F)F (stereo not drawn) = 80.1
• CCn1c(Oc2ccc3cc[nH]c3c2)nnc1[C@@H](C)NS(=O)(=O)c1cc(OC)ccc1OC = 75.3
• CCn1c(Oc2cccc(N3CCN(C)CC3)c2)nnc1[C@@H](C)NS(=O)(=O)c1cc(F)c(F)cc1F = 100
• CCn1c(Oc2cccc(N3CCN(C)CC3)c2)nnc1[C@@H](C)NS(=O)(=O)CCc1cccc2ccccc12 = 114

inhibition at 10 µM reading for `CCn1c(Oc2cccc(N3CCN(C)CC3)c2)nnc1[C@@H](C)NS(=O)(=O)c1ccc(NC(C)=O)c(Cl)c1` : 65.9

inhibition at 10 µM reading for `CCn1c(Oc2cccc(N3CCN(C)CC3)c2)nnc1[C@@H](C)NS(=O)(=O)c1ccc(-c2csnn2)s1` : 97.1

inhibition at 10 µM reading for `CCn1c(Oc2cccc(N3CCNCC3)c2)nnc1[C@@H](C)NS(=O)(=O)c1ccc(Cl)c(Cl)c1` : 100

inhibition at 10 µM reading for `CCn1c(Oc2cccc(N3CCN(C)CC3)c2)nnc1[C@@H](C)NS(=O)(=O)c1ccccc1` : 84

inhibition at 10 µM reading for `CCn1c(Oc2cccc(N3CCN(C)CC3)c2)nnc1[C@@H](C)NS(=O)(=O)c1ccc(C)cc1` : 106

inhibition at 10 µM reading for `CCn1c(Oc2ccc3cc[nH]c3c2)nnc1[C@@H](C)NS(=O)(=O)c1cc(C(F)(F)F)ccc1Br` : 55.7

inhibition at 10 µM reading for `CCn1c(Oc2cccc(N3CCN(C)CC3)c2)nnc1[C@@H](C)NS(=O)(=O)c1ccc(Br)cc1F` : 106

###

We begin with a simple list: items and their reported melting point.

* CCn1c(Oc2ccc(C(C)C)cc2)nnc1[C@@H](C)NS(=O)(=O)c1ccc(Cl)c(Cl)c1 | 176 to 178 °C
* CCn1c(Oc2ccc3[nH]ccc3c2)nnc1[C@@H](C)NS(=O)(=O)c1ccc(Cl)c(Cl)c1 | 216.5 to 217.5 °C

melting point reading for `CCn1c(Oc2cc(C)c(C)c(C)c2)nnc1[C@@H](C)NS(=O)(=O)c1ccc(Cl)c(Cl)c1` : 189 to 194 °C

melting point reading for `CCn1c(Oc2cccc(NC(=O)N(C)C)c2)nnc1[C@@H](C)NS(=O)(=O)c1ccc(Cl)c(Cl)c1` : 158 to 159 °C

melting point reading for `CCn1c(Oc2cc(C)ccn2)nnc1[C@@H](C)NS(=O)(=O)c1ccc(Cl)c(Cl)c1` : 183 to 190 °C

melting point reading for `CCn1c(Oc2cccc(C(C)C)c2)nnc1[C@@H](C)NS(=O)(=O)c1ccc(Cl)c(Cl)c1` : 155.5 to 156.5 °C

melting point reading for CCC(NS(=O)(=O)c1ccc(Cl)c(Cl)c1)c1nnc(Oc2ccc(C)cc2)n1CC (stereo not drawn) : 212 to 214.5 °C

###

tgt: human Edg-1 (S1P1) (Homo sapiens, UniProt P21453)
Construct: expressed in transfected cells; host or cells: HEK-293
test method notes: S1P1 binding assay: inhibition of [33P]-S1P binding to membrane fraction of HEK-293 cells transferred with the human Edg-1 (S1P1) gene
measurement parameters: test compound at 10 μM; inhibition of [33P]-S1P binding to the membrane fraction of HEK-293 cells expressing human Edg-1 (S1P1)
We begin with a simple list: items and their reported inhibition at 10 µM.
Record the result as a number with its unit.

Example results:
- CCn1c(Oc2ccccn2)nnc1[C@@H](C)NS(=O)(=O)c1ccc(Cl)c(Cl)c1 [Compound 53]: 86.8%
- CCn1c(Oc2ccc(F)cc2)nnc1[C@@H](C)NS(=O)(=O)c1ccc(Cl)cc1F [Compound 267]: 89.6%
- CCn1c(Oc2ccc(OC)cc2)nnc1[C@@H](C)NS(=O)(=O)c1ccc2ccccc2c1 [Compound 140]: 102%
- CCn1c(Oc2ccc(F)cc2)nnc1[C@@H](C)NS(=O)(=O)c1cc(Cl)c(Cl)cc1Cl [Compound 184]: 97.3%
- CCn1c(Oc2ccc(N3CCOCC3)cc2)nnc1[C@@H](C)NS(=O)(=O)c1ccc(Cl)c(Cl)c1 [Compound 47]: 102%
- CCn1c(Oc2ccc3[nH]c(C)cc3c2)nnc1[C@@H](C)NS(=O)(=O)c1ccc(Cl)c(Cl)c1 [Compound 65]: 105%
- CCn1c(Oc2ccc(F)cc2)nnc1[C@@H](C)NS(=O)(=O)c1ccc(C(C)(C)C)cc1 [Compound 157]: 74.6%

// next item, inhibition at 10 µM requested
inhibition at 10 µM reading for CCn1c(Oc2cc(C)ccn2)nnc1[C@@H](C)NS(=O)(=O)c1ccc(Cl)c(Cl)c1 [Compound 66] : 93.4%
